- Tested on: Staphylococcus aureus
- PROCEDURE_TEXT: Antimicrobial activity against glycopeptide intermediate resistant Staphylococcus aureus 3793 isolate
- Type: functional
ATTRIBUTE_MEASURED: MIC (µg/mL)
One number for each entry, in µg/mL.

Read the entry CN[C@H](CC(C)C)C(=O)N[C@H]1C(=O)N[C@@H](CC(N)=O)C(=O)N[C@H]2C(=O)N[C@H]3C(=O)N[C@H](C(=O)N[C@H](C(=O)O)c4cc(O)cc(O)c4-c4cc3ccc4O)[C@H](O[C@@H]3C[C@@](C)(N)[C@H](O)[C@@H](C)O3)c3ccc(cc3)Oc3cc2cc(c3O[C@H]2O[C@@H](CO)[C@H](O)[C@@H](O)[C@@H]2O[C@H]2C[C@](C)(N)[C@@H](O)[C@H](C)O2)Oc2ccc(cc2Cl)[C@H]1O [EREMOMYCIN] and write its reported MIC.
8

Read the entry CN[C@H](CC(C)C)C(=O)N[C@H]1C(=O)N[C@@H](CC(N)=O)C(=O)N[C@H]2C(=O)N[C@H]3C(=O)N[C@H](C(=O)N[C@H](C(=O)NC45CC6CC(CC(C6)C4)C5)c4cc(O)cc(O)c4-c4cc3ccc4O)[C@H](O[C@@H]3C[C@@](C)(N)[C@H](O)[C@@H](C)O3)c3ccc(cc3)Oc3cc2cc(c3O[C@H]2O[C@@H](CO)[C@H](O)[C@@H](O)[C@@H]2O[C@H]2C[C@](C)(N)[C@@H](O)[C@H](C)O2)Oc2ccc(cc2Cl)[C@H]1O and write its reported MIC.
1

Consider now this further compound.
Read the entry CN[C@H](CC(C)C)C(=O)N[C@H]1C(=O)N[C@@H](CC(N)=O)C(=O)N[C@H]2C(=O)N[C@H]3C(=O)N[C@H](C(=O)N[C@H](C(=O)NC(C)C4C5CC6CC(C5)CC4C6)c4cc(O)cc(O)c4-c4cc3ccc4O)[C@H](O[C@@H]3C[C@@](C)(N)[C@H](O)[C@@H](C)O3)c3ccc(cc3)Oc3cc2cc(c3O[C@H]2O[C@@H](CO)[C@H](O)[C@@H](O)[C@@H]2O[C@H]2C[C@](C)(N)[C@@H](O)[C@H](C)O2)Oc2ccc(cc2Cl)[C@H]1O (stereo partly drawn) and write its reported MIC.
4

---

- PROCEDURE_TEXT: Clearance in BALB/c mouse at 25 mg/kg, iv
- Format: ADME, organism-based
- Parameters: dose 25 mg/kg, route intravenous
- MEASUREMENT_PARAMETERS: in vivo
ATTRIBUTE_MEASURED: clearance (mL/min/kg)
One number for each entry, in mL/min/kg.

Read the entry CN[C@H](CC(C)C)C(=O)N[C@H]1C(=O)N[C@@H](CC(N)=O)C(=O)N[C@H]2C(=O)N[C@H]3C(=O)N[C@H](C(=O)N[C@H](C(=O)NC45CC6CC(CC(C6)C4)C5)c4cc(O)cc(O)c4-c4cc3ccc4O)[C@H](O[C@@H]3C[C@@](C)(N)[C@H](O)[C@@H](C)O3)c3ccc(cc3)Oc3cc2cc(c3O[C@H]2O[C@@H](CO)[C@H](O)[C@@H](O)[C@@H]2O[C@H]2C[C@](C)(N)[C@@H](O)[C@H](C)O2)Oc2ccc(cc2Cl)[C@H]1O and write its reported clearance.
8.93

---

What MIC was measured for each of the following?
- Tested on: Enterococcus faecium
- PROCEDURE_TEXT: Antimicrobial activity against vancomycin-susceptible Enterococcus faecium 568 isolate
- Assay type: functional
Numbers only, in µg/mL.

Read the entry CN[C@H](CC(C)C)C(=O)N[C@H]1C(=O)N[C@@H](CC(N)=O)C(=O)N[C@H]2C(=O)N[C@H]3C(=O)N[C@H](C(=O)N[C@H](C(=O)NC45CC6CC(CC(C6)C4)C5)c4cc(O)cc(O)c4-c4cc3ccc4O)[C@H](O[C@@H]3C[C@@](C)(N)[C@H](O)[C@@H](C)O3)c3ccc(cc3)Oc3cc2cc(c3O[C@H]2O[C@@H](CO)[C@H](O)[C@@H](O)[C@@H]2O[C@H]2C[C@](C)(N)[C@@H](O)[C@H](C)O2)Oc2ccc(cc2Cl)[C@H]1O and write its reported MIC.
0.5

Consider now this further compound.
Read the entry CN[C@H](CC(C)C)C(=O)N[C@H]1C(=O)N[C@@H](CC(N)=O)C(=O)N[C@H]2C(=O)N[C@H]3C(=O)N[C@H](C(=O)N[C@H](C(=O)NCC4C5CC6CC(C5)CC4C6)c4cc(O)cc(O)c4-c4cc3ccc4O)[C@H](O[C@@H]3C[C@@](C)(N)[C@H](O)[C@@H](C)O3)c3ccc(cc3)Oc3cc2cc(c3O[C@H]2O[C@@H](CO)[C@H](O)[C@@H](O)[C@@H]2O[C@H]2C[C@](C)(N)[C@@H](O)[C@H](C)O2)Oc2ccc(cc2Cl)[C@H]1O (some centres not stated) and write its reported MIC.
0.5
